- SUBJECT OF TEST: Lysine-specific demethylase 4D (Homo sapiens) (UniProt Q6B0I6)
- ASSAY METHOD TEXT: Binding affinity to N-terminal His-6-tagged human KDM4D catalytic domain (1 to 342 residues) assessed as change in entropy by isothermal titration calorimetry analysis
Please respond with reported -TdeltaS for every item in the list.
Give bare numbers, in kcal/mol.

# count of solved cases: 3
> print(dat)
                    structure.smiles.string  observation.type  readout.unit  reported
1  NNC(=O)[C@H](NC(=O)CCCCc1ccccc1)c1nnn[nH]1          -TdeltaS      kcal/mol     -12.9
2            CS(=O)(=O)NCCNc1cc(C(=O)O)ccn1          -TdeltaS      kcal/mol     -1.35
3                     O=C(O)c1ccnc(NCCCO)c1          -TdeltaS      kcal/mol     -4.05

Here is the next item to consider.
Specify reported -TdeltaS for the compound shown: O=C(NO)c1cc(-c2nnn[nH]2)ccn1
-13.7

###

- SUBJECT OF TEST: Lysine-specific demethylase 4D (Homo sapiens) (UniProt Q6B0I6)
- ASSAY METHOD TEXT: Binding affinity to N-terminal His-6-tagged human KDM4D catalytic domain (1 to 342 residues) assessed as change in enthalpy by isothermal titration calorimetry analysis
OBSERVATION TYPE: deltaH

Please give deltaH for each item listed below.
1. CS(=O)(=O)NCCNc1cc(C(=O)O)ccn1
2. O=C(O)c1ccnc(NCCCO)c1
3. O=C(NO)c1cc(-c2nnn[nH]2)ccn1
4. NNC(=O)[C@H](NC(=O)CCCCc1ccccc1)c1nnn[nH]1

["-4.6 kcal/mol", "-1.65 kcal/mol", "5.3 kcal/mol", "8.5 kcal/mol"]

###

- SUBJECT OF TEST: Lysine-specific demethylase 4D (Homo sapiens) (UniProt Q6B0I6)
- ASSAY METHOD TEXT: Binding affinity to N-terminal His-6-tagged human KDM4D catalytic domain (1 to 342 residues) assessed as change in gibbs free energy by isothermal titration calorimetry analysis
Please respond with reported deltaG for every item in the list.
Give bare numbers, in kcal/mol.

# count of solved cases: 3
> print(dat)
                    structure.smiles.string  reported
1              O=C(NO)c1cc(-c2nnn[nH]2)ccn1      -8.4
2                     O=C(O)c1ccnc(NCCCO)c1      -5.7
3  NNC(=O)[C@H](NC(=O)CCCCc1ccccc1)c1nnn[nH]1     -4.42

Specify reported deltaG for the molecule shown: CS(=O)(=O)NCCNc1cc(C(=O)O)ccn1
-5.97

###

- SUBJECT OF TEST: UniProt:Q6B0I6
- Sequence (Q6B0I6 whole entry): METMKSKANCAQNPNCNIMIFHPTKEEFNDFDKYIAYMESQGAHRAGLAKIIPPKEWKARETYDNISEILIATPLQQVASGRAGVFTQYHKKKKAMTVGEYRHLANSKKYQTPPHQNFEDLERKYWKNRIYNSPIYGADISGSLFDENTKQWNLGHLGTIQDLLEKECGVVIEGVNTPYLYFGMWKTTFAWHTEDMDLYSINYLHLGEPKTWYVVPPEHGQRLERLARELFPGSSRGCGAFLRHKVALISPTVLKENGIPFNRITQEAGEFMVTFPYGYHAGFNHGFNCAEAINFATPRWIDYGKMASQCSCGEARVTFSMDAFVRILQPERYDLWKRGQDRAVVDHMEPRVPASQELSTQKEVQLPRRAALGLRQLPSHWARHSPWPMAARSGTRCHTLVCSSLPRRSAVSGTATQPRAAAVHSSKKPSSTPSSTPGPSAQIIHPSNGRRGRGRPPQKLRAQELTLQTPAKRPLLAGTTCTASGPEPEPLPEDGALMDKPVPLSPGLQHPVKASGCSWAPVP
OBSERVATION TYPE: Kd (µM)
Answers are plain numbers, in µM.

Please respond with reported Kd (system UniProt:Q6B0I6) for CS(=O)(=O)NCCNc1cc(C(=O)O)ccn1 .
35.5
